These data points were gathered from the supplement of paper PMC9170038.

Test system: MS2 coat protein
Assay: apparent KD of MS2 coat protein; higher = weaker reporter binding
Settings: Eterna round: R107; input ligand: theophylline 20 uM
Catalogue of apparent KD of MS2 coat protein values
Express it in µM; write the number only.

// worked examples, apparent KD of MS2 coat protein included
sequence.data: CUAUAAUGAAAACAUUAUAGAGUGGGUGAACGAGGACCGGUACGGCCGCCACUCGGACAUGAGGAUCACCCAUGUCCAUGUGAAA [AstrosExyTryA#24]
unit.descriptor: µM
apparent KD of MS2 coat protein: 0.0189

sequence.data: GUACCACAGUCGGCCGCCACUAAGUUGUAUUCCAGCAGGACGAAACAUGAGGAUCACCCAUGUCCUAGGACCGGGACUUCCGUCG [theeternabot_sameState_MS2_Trp_B_41]
unit.descriptor: µM
apparent KD of MS2 coat protein: 0.0252

sequence.data: CGCAACCAACAUGAGGAUCACCCAUGUGAAGGAGCGCCGAAGAAGGCAGGUAGGUCGCACAUGAAUAAAUCAUGUAAAAGGUUGC [MAT - Exclusion Arginine A - Mod of Eli - D19]
unit.descriptor: µM
apparent KD of MS2 coat protein: 0.0645

sequence.data: GGACCAGGGAGCGAUACCAGCUUGAGUGUGCUGGCCAGGCACAUGAGGAUCACCCAUGUAGGCCCUUGGCAGCGCUCCCUGGUCC [#1 Exclusion - Theophylline B Attempt #28 (HarryS)]
unit.descriptor: µM
apparent KD of MS2 coat protein: 0.0165

Next sequence, please.
Challenge: Report apparent KD of MS2 coat protein, nothing else, for this sequence: ACAUGAGGAUCACCCAUGUAUGACUAUCCUCGAGGACCGGUACGGCCGCCACUCGAAGGAGUGGCUCGCGAGUGCGCACUUGCGA [5' end]
Response given: 0.0192

---

Catalogue of apparent KD of MS2 coat protein values
System: MS2 coat protein
Experiment: apparent KD of MS2 coat protein, switch OFF state (with FMN for OFF switches, without FMN for ON switches); designed switch direction (-1 OFF switch, 1 ON switch): 1; higher = weaker reporter binding
Settings: FMN input: 0 or 200 uM; Eterna round: R93 (includes R88 designs)
Express it in nM; write the number only.

// worked examples, apparent KD of MS2 coat protein included
sequence.data: GAAAAACAUGAGGAUCACCCAUGUGAGAAUAUGGGAGGAUAUUCAAAGACGAAAGUCAAAGAAGAAGGCCUAAAAG [Mat - Same State 1 - Eli mod - 37]
apparent KD of MS2 coat protein (nM): 276

sequence.data: AAAAAUAAAACACAGGAUAUCCAAAAGAAAACAUGAGGAUCACCCAUGUAAAGAAAAUAAAAAUGGGAGAAGGGUGAAAAUAAGA [Mat - Same State 2 - JL mod - D21]
apparent KD of MS2 coat protein (nM): 52.6

sequence.data: AGCACGUGAUUGGAGGAUAUGCAGUAAGCAACAUGAGGAUCACCCAUGUCUGACCCUGAAAACCAGCAGAAGGCCGAUACAACCA [SS2-1.7]
apparent KD of MS2 coat protein (nM): 13

sequence.data: AAAAAACAUGAGGAUCACCCAUGUAAAAAAAUCGCAGGAUAUAAGGUCGCGAAAGCGACCUUAGAAGGGCGAUCCU [Louisiana 1 - Jieux - Same State 1]
apparent KD of MS2 coat protein (nM): 75.8

Challenge: Tell me apparent KD of MS2 coat protein of AGAAAACAUGAGGAUCACCCAUGUGACAAUAUGGGAGGAUAUACAAAGACGAAAGUCGAAGUAGAAGGCCUAAAGA [Garnet 52] when tested on MS2 coat protein.
Response given: 69.7
